- TARGET UNDER TEST: human H3 receptor (Homo sapiens, UniProt Q9Y5N1)
- Construct: expressed in transfected cells
- Sequence (Q9Y5N1 whole entry): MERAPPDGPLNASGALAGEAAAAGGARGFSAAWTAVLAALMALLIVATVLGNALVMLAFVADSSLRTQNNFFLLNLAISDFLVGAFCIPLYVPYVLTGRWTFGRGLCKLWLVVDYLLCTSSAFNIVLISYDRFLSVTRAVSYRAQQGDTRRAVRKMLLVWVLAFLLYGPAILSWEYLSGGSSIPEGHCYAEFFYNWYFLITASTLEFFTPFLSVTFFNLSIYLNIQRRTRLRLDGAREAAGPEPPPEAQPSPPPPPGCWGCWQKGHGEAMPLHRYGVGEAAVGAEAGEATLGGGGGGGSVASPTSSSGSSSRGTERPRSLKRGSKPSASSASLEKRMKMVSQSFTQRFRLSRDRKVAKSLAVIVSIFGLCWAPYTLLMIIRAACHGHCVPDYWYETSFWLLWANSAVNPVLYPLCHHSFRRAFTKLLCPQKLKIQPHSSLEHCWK
- PROTOCOL: Human H3 radioligand binding ([3H]-N-alpha-methylhistamine, SPA)
- SETUP CONDITIONS: Human H3 binding, Table B, Examples 136-362; read-out: hum H3 binding Ki
QUANTITY MEASURED: Ki

See these solved cases before continuing.
# STRUCTURE STRING, RECORDED RESULT
data = [
    ("O=C(c1ccc(-c2ccc3c(c2)COC2(CCN(C4CCC4)CC2)O3)cc1F)N1CCC(O)CC1", "< 200 nM"),
    ("CC(=O)N(Cc1ccsc1)c1ccc2c(c1)COC1(CCN(C3CCC3)CC1)O2", "< 200 nM"),
    ("CO[C@H]1CCN(C(=O)c2ccc(-c3ccc4c(c3)CCC3(CCN(C5CCC5)CC3)O4)cn2)C1", "< 200 nM"),
    ("O=C(Nc1ccc2c(c1)COC1(CCN(C3CCC3)CC1)O2)c1ccc2nccn2c1", "< 200 nM"),
]

### Prompt What value of Ki has been reported for the following compound? O=C(Nc1ccccc1)N1CCN(c2ccc3c(c2)COC2(CCN(C4CCC4)CC2)O3)CC1
### Response < 200 nM

### Prompt What value of Ki has been reported for the following compound? O=C(c1ccc(-c2ccc3c(c2)COC2(CCN(C4CCC4)CC2)O3)cc1)N1CCC(O)CC1
### Response < 200 nM

### Prompt What value of Ki has been reported for the following compound? c1cc(CNc2ccc3c(c2)COC2(CCN(C4CCC4)CC2)O3)ccn1
### Response < 200 nM

### Prompt What value of Ki has been reported for the following compound? CN(C(=O)N1CCN(c2ccc3c(c2)COC2(CCN(C4CCC4)CC2)O3)CC1)c1ccccc1
### Response < 200 nM

Where do the numbers come from? From patent US8513232B2.
